Each recorded value in this set is attributed to patent US20250136593A1.

Target: ternary complex between BCL-XL and CRBN-DDB1 (Homo sapiens, UniProt Q07817+Q96SW2)
Sequence (Q07817 whole entry): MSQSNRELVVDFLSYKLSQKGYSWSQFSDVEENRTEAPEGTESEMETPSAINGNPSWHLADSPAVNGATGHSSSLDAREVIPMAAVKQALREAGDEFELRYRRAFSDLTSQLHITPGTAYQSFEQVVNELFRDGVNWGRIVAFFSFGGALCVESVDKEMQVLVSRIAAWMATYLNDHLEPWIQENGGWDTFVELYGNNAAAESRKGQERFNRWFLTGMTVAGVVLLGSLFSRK
Sequence (Q96SW2 whole entry): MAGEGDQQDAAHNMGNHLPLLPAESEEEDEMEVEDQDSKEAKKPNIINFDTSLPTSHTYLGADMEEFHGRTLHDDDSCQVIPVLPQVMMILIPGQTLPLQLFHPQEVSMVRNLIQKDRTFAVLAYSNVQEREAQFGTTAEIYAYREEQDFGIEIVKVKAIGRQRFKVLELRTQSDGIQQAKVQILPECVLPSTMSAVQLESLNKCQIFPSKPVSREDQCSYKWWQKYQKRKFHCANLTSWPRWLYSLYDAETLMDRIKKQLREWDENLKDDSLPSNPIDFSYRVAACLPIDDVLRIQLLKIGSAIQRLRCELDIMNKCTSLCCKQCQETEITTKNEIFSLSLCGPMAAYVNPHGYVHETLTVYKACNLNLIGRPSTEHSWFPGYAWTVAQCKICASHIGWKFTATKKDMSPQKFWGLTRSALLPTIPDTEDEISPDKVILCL
Sequence (Q16531 whole entry partner): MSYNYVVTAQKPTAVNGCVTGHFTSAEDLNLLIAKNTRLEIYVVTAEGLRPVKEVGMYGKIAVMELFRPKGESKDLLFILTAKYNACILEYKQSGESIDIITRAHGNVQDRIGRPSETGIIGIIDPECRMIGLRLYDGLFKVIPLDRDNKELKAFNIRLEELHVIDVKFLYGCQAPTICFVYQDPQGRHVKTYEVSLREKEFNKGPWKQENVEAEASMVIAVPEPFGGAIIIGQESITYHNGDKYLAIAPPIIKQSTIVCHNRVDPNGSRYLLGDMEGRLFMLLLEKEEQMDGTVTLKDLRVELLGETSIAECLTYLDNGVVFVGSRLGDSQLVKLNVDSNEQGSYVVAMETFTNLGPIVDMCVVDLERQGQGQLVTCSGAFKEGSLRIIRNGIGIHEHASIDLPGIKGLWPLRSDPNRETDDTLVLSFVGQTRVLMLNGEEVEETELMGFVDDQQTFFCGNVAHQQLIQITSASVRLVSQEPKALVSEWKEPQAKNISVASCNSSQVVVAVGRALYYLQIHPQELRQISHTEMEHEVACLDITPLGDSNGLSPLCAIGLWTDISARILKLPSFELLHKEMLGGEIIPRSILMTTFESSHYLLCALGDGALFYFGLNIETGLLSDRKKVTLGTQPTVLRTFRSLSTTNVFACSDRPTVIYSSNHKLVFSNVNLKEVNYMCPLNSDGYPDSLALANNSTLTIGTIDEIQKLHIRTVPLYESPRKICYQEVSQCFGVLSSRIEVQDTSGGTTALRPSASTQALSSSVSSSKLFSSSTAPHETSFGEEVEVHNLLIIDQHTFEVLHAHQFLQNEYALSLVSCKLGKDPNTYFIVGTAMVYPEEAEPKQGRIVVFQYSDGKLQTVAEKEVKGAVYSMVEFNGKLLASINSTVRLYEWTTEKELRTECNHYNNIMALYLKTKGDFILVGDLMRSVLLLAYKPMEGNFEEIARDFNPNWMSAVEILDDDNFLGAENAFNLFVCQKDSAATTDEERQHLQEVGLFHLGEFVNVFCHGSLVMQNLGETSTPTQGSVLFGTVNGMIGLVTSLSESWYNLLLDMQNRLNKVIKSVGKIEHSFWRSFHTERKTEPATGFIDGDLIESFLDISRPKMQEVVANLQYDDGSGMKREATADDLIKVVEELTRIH
Test: Compound-induced formation of ternary complex between BCL-XL and CRBN-DDB1 by AlphaLISA
Format: biochemical
Parameters: key: the number of + indicates the intensity of AlphaLISA peak signal; ++: the number of + indicates the intensity of AlphaLISA peak signal; +++: the number of + indicates the intensity of AlphaLISA peak signal; ++++: the number of + indicates the intensity of AlphaLISA peak signal; +++++: the number of + indicates the intensity of AlphaLISA peak signal
Settings: peak signal; 60 nM Strep-BCL-XL and 60 nM His-CRBN/DDB1
measured attribute: AlphaLISA signal (PROTAC ternary complex signal intensity)

- compound: "C=Cc1cc(-c2nc3c(c(NC)n2)CCN(C(=O)c2ccc(COc4ccc(C#CCN5CCN(CCCCCCCCOc6cccc7c6C(=O)N(C6CCC(=O)NC6=O)C7=O)CC5)cc4)cc2)C3)cnc1C=C (stereo not drawn) [Compound C3-18]"
  result: "+++"
- compound: "CNc1nc(-c2cnc3ccccc3c2)nc2c1CCN(C(=O)c1ccc(/C=C/c3ccc(C#CCN4CCN(C(=O)CCCCCCCCC(=O)N[C@H](C(=O)N5C[C@H](O)C[C@H]5C(=O)N[C@@H](C)c5ccc(-c6scnc6C)cc5)C(C)(C)C)CC4)cc3)cc1)C2 [Compound G2-7]"
  result: "+"
- compound: "O=C1CCC(N2Cc3c(CN4CC5(C4)CN(C4CCN(CC#Cc6ccc(/C=C/c7ccc(C(=O)N8CCc9cnc(-c%10cnc%11ccccc%11c%10)nc9C8)cc7)cc6)CC4)C5)cccc3C2=O)C(=O)N1 (stereo not drawn) [Compound F3B-3]"
  result: "++"
- compound: "C=Cc1cc(-c2ncc3c(n2)CN(C(=O)c2ccc(/C=C/c4ccc(C#CCN5CCN(CCCCCOc6cccc7c6C(=O)N(C6CCC(=O)NC6=O)C7=O)CC5)cc4)cc2)CC3)cnc1C=C (stereo not drawn) [Compound C3-2]"
  result: "+"

Query: AlphaLISA signal (PROTAC ternary complex signal intensity); subject: O=C1CCC(N2Cc3cc(N4CCC(CN5CCN(CC#Cc6ccc(/C=C/c7ccc(C(=O)N8CCc9cnc(-c%10cnc%11ccccc%11c%10)nc9C8)cc7)cc6)CC5)CC4)ccc3C2=O)C(=O)N1 (stereo not drawn) [Compound F2-4]
++

Query: AlphaLISA signal (PROTAC ternary complex signal intensity); subject: CNc1nc(-c2cnc3ccccc3c2)nc2c1CCN(C(=O)c1ccc(COc3ccc(C#CCN4CCN(C(=O)CCCn5cc(COCCOCCNc6cccc7c6C(=O)N(C6CCC(=O)NC6=O)C7=O)nn5)CC4)cc3)cc1)C2 (stereo not drawn) [A]
++

Query: AlphaLISA signal (PROTAC ternary complex signal intensity); subject: CNc1nc(-c2cnc3ccccc3c2)nc2c1CCN(C(=O)c1ccc(/C=C/c3ccc(C#CCN4CCN(CCCC#Cc5cccc6c5CN(C5CCC(=O)NC5=O)C6=O)CC4)cc3)cc1)C2 (stereo not drawn) [Compound D2-6]
++

Query: AlphaLISA signal (PROTAC ternary complex signal intensity); subject: C=Cc1cc(-c2nc3c(c(NC)n2)CCN(C(=O)c2ccc(COc4ccc(C#CCN(C)CCCCOc5cccc6c5C(=O)N(C5CCC(=O)NC5=O)C6=O)cc4)cc2)C3)cnc1C=C (stereo not drawn) [Compound B2]
+

Query: AlphaLISA signal (PROTAC ternary complex signal intensity); subject: CNc1nc(-c2cnc3ccccc3c2)nc2c1CCN(C(=O)c1ccc(/C=C/c3ccc(C#CCN4CCN(C(=O)CC(=O)N[C@H](C(=O)N5C[C@H](O)C[C@H]5C(=O)N[C@@H](C)c5ccc(-c6scnc6C)cc5)C(C)(C)C)CC4)cc3)cc1)C2 [Compound G2-1]
++
